- System: Vero E6
- Assay Notes: cell viability relative to DMSO; higher = less toxic
- Condition Set: 72 h; 10 nM

| Compound | Tested On | cell viability, % |
| --- | --- | --- |
| O=C(O)c1ccc2cc(-c3ccc(O)c(C45CC6CC(CC(C6)C4)C5)c3)ccc2c1 | Vero E6 | 99.1 |
| Fc1ccccc1CNCc1ccc(-c2ccnc3[nH]ccc23)cc1 | Vero E6 | 95.6 |
| CC(C)C[C@H](NC(=O)[C@H](CCCCN)NC(=O)[C@H](CCCNC(=N)N)NC(=O)[C@H](C)NC(=O)[C@H](CO)NC(=O)[C@H](CCCCN)NC(=O)[C@H](CCCNC(=N)N)NC(=O)[C@H](C)NC(=O)CNC(=O)[C@@H](NC(=O)[C@H](Cc1ccccc1)NC(=O)CNC(=O)CNC(=O)[C@@H](N)Cc1ccccc1)[C@@H](C)O)C(=O)N[C@@H](C)C(=O)N[C@@H](CC(N)=O)C(=O)N[C@@H](CCC(N)=O)C(=O)O | Vero E6 | 99.7 |
| Nc1ncnc2[nH]nc(Nc3ccc(F)cc3)c12 | Vero E6 | 103 |
| CCCC(C)C1(CC)C(=O)NC(=S)NC1=O (configuration not stated) | Vero E6 | 95.2 |
| CCc1cncnc1N1CCN(Cc2nc3cc(C(F)(F)F)ccc3[nH]2)CC1 | Vero E6 | 104 |
| Cc1cc(CN)cc(C)c1NC(=O)c1ccc(-c2cc(Cl)ccc2Cl)o1 | Vero E6 | 97.5 |
| CS(=O)(=O)CCNCc1nc(-c2ccc3ncnc(Nc4ccc(OCc5cccc(F)c5)c(Cl)c4)c3c2)cs1 | Vero E6 | 98.3 |
| COC1=C[C@@H]2[C@@H]3Cc4ccc(OC)c(O)c4[C@]2(CCN3C)CC1=O | Vero E6 | 97.7 |
| CN1CCN(c2cccc(Nc3nc4c(-c5ccc(S(C)(=O)=O)cc5)cccn4n3)c2)CC1 | Vero E6 | 95.1 |
| c1ccc(CN2CCC3(CCc4ccccc43)CC2)cc1 | Vero E6 | 97 |
| CNCCCC1(c2ccccc2)OC(C)(C)c2ccccc21 (configuration not stated) | Vero E6 | 96.8 |
| O=C1C(=C(O)/C=C/c2ccc(O)cc2)C(=O)[C@@](O)([C@@H]2O[C@H](CO)[C@@H](O)[C@H](O)[C@H]2O)C(=O)[C@H]1[C@@H]1O[C@H](CO)[C@@H](O)[C@H](O)[C@H]1O | Vero E6 | 98.1 |
| C[C@H](Nc1cc2c(-c3ccc4c(c3)OCO4)noc2cn1)c1ccccc1 | Vero E6 | 96.2 |
| O=C(Nc1ccccc1C(=O)Nc1ccc(CCO)cc1)c1ccc([N+](=O)[O-])cc1 | Vero E6 | 102 |
| CC(=O)N[C@@H](CSC/C=C(\C)CC/C=C(\C)CCC=C(C)C)C(=O)O | Vero E6 | 107 |
| N=C(N)NCCC[C@H](N)C(=O)O | Vero E6 | 99.2 |

----------
- System: Caco-2
- Assay Notes: cell viability relative to DMSO; higher = less toxic
- Condition Set: 72 h; 1000 nM

| Compound | cell viability |
| --- | --- |
| O[C@@H](CN1CCNCC1)Cn1c2ccc(Br)cc2c2cc(Br)ccc21 | 87.7% |
| C[C@]12CC[C@H]3[C@@H](CC[C@]4(O)C[C@@H](O)CC[C@]34C=O)[C@@]1(O)CC[C@@H]2C1=CC(=O)OC1 | 68.5% |
| NC(=O)OCCCc1ccccc1 [phenprobamate] | 102% |
| O=C(O)COc1cccc(CN(Cc2ccc(-n3cccn3)cc2)S(=O)(=O)c2cccnc2)c1 | 109% |
| O=S(=O)(O)c1ccc2[nH]c(-c3ccccc3)nc2c1 | 93% |
| NC(=O)CCCCn1ccc(/N=C(\N)NCC(F)(F)F)n1 | 92.6% |
| CN1C(=O)N(c2cc(Cl)cc(Cl)c2)C(=O)[C@]12CN(c1ccc(C(=O)O)cn1)C[C@H]2c1ccc(C#N)cc1 | 89% |
| CCN(CC)C(=O)c1ccc(C2=CC3(CCNCC3)Oc3cccc(O)c32)cc1 | 97.3% |
| O=C(/C=C/c1ccc(CN(CCO)CCc2c[nH]c3ccccc23)cc1)NO | 0.3% |
| O=C1c2cccc(O)c2C(=O)c2c(O)cc(CO)cc21 | 92.4% |
| N[C@@H](C(=O)O)c1ccc(C(=O)O)c(C(=O)O)c1 (racemic) [3,4-DCPG-(+/-)] | 96.6% |
| CCOc1c2c(c(OCC)c3ccccc13)C(=O)N(c1ccc(CC(=O)NS(=O)(=O)c3ccccc3)cc1)C2 | 90.3% |
| C[C@H]1C[C@H]2[C@@H]3CCC4=CC(=O)C=C[C@]4(C)[C@@]3(Cl)[C@@H](O)C[C@]2(C)[C@@]1(O)C(=O)CO | 98.4% |
| COc1ccc([C@@H]2CC(=O)c3c(O)cc(O[C@@H]4O[C@H](CO)[C@@H](O)[C@H](O)[C@H]4O[C@@H]4O[C@@H](C)[C@H](O)[C@@H](O)[C@H]4O)cc3O2)cc1O | 90.1% |
| CCN(CC)CC1CCCCN1CC(=O)N1c2ccccc2C(=O)Nc2cccnc21 (stereo unspecified) | 97.6% |
| Cc1c(Cc2ccc3ccccc3n2)c2cc(F)ccc2n1CC(=O)O | 98.4% |
